Test system: P388 leukemia ip, CD2F1 mice, survival T/C
Assay: NCI In Vivo Anticancer Drug Screen. Data for tumor model P388 Leukemia (intraperitoneal) in CD2F1 (CDF1) mice
Conditions: endpoint: median survival time; dose: 400.0 mg/kg/injection; schedule: Q04DX002 (ip); vehicle: saline; higher = longer survival
Toxic doses and inconclusive results are not listed.
Kindly supply the reported T/C values for the records listed here.

// T/C (P388 leukemia ip, CD2F1 mice, survival T/C) for `NCCCn1[nH]c(=O)c2ccncc2c1=O` = 95 % of control

// T/C (P388 leukemia ip, CD2F1 mice, survival T/C) for `COc1c2c(c3c(c1OC)CN(CC(c1ccccc1)c1ccccc1)CC3)CCC2` = 103 % of control

// T/C (P388 leukemia ip, CD2F1 mice, survival T/C) for `Nc1ccn(COC(CO)CO)c(=O)n1` = 103 % of control

// T/C (P388 leukemia ip, CD2F1 mice, survival T/C) for `CC(C)C=C1[C@H](O)CC[C@@H]1O` = 96 % of control

// T/C (P388 leukemia ip, CD2F1 mice, survival T/C) for `N=C(N)SCC(=O)Nc1nc(NC(=O)CSC(=N)N)nc(NC(=O)CSC(=N)N)n1` = 100 % of control

====

Tested on: P388 leukemia ip, CD2F1 mice, survival T/C
Assay: NCI In Vivo Anticancer Drug Screen. Data for tumor model P388 Leukemia (intraperitoneal) in CD2F1 (CDF1) mice
Details: endpoint: median survival time; dose: 240.0 mg/kg/injection; schedule: Q01DX005 (ip); vehicle: saline with Tween-80; higher = longer survival
Toxic doses and inconclusive results are not listed.
observable: T/C

The reported value for `CC(C)=CN=Cc1nc(Cc2ccccc2)oc1O` in terms of T/C is 94 % of control

The reported value for `O=C(Cc1nc2cc(Cl)c(Cl)cc2nc1CC(=O)c1cccnc1)c1cccnc1` in terms of T/C is 100 % of control

The reported value for `O=C1CCCC2=C1C(c1ccccc1)C1=C(CCCC1=O)O2` in terms of T/C is 92 % of control

The reported value for `Oc1ccc(Br)cc1C=NCCS` in terms of T/C is 89 % of control

The reported value for `O=C1COc2ccccc2OCCOCCOc2ccccc2OC1` in terms of T/C is 96 % of control

The reported value for NC(Cc1c[nH]c2ccccc12)C(=O)NCCS(=O)(=O)O (stereo unspecified) in terms of T/C is 99 % of control

The reported value for `CCO/C(CC#N)=C(/C#N)C(=O)Nc1ccc(OC)cc1` in terms of T/C is 89 % of control

The reported value for `CCO/C=C1/N=C(c2ccccc2Cl)OC1=O` in terms of T/C is 98 % of control

The reported value for `O=C(NCCCCNCCCNC(=O)c1ccc([N+](=O)[O-])cc1)c1ccc([N+](=O)[O-])cc1` in terms of T/C is 98 % of control

The reported value for CSC1C(=O)N2CCCc3cccc1c32 (stereo unspecified) in terms of T/C is 96 % of control

The reported value for `COC(=O)c1c(-c2ccccc2)c(-c2ccccc2)[nH]c(=O)c1C#N` in terms of T/C is 91 % of control

====

Test system: P388 leukemia ip, CD2F1 mice, survival T/C
Experiment: NCI In Vivo Anticancer Drug Screen. Data for tumor model P388 Leukemia (intraperitoneal) in CD2F1 (CDF1) mice
Conditions: endpoint: median survival time; dose: 100.0 mg/kg/injection; schedule: Q01DX005 (ip); vehicle: saline with Tween-80; higher = longer survival
Inconclusive results and toxic doses are left out.
observable: T/C

The reported value for `CCCCCCCCCCCC1=c2o[nH]c2=C(c2ccccn2)C(=O)C1=O` in terms of T/C is 86 % of control

The reported value for `COC(=O)C1=C(C)NC(C)=C(C(=O)OC)C1c1cc2ccccc2nc1Cl` in terms of T/C is 88 % of control

The reported value for `COc1ccc(C2=Nn3c(nc(N)nc3=N)SC2)cc1` in terms of T/C is 96 % of control

The reported value for NCCCCC(C(=O)O)N(C(=O)OCc1ccccc1)C(=O)OCc1ccccc1 (centres undefined) in terms of T/C is 101 % of control

The reported value for `COc1ccc(NC(=O)c2cc3ccc4c5ccccc5[nH]c4c3cc2O)cc1` in terms of T/C is 88 % of control

The reported value for NC(CCSSCCC(N)P(=O)(O)O)P(=O)(O)O (centres undefined) in terms of T/C is 92 % of control

The reported value for `CCN(CC)CCCNc1cccc2c(SCc3ccccc3)ccnc12` in terms of T/C is 102 % of control

The reported value for `O=C1C=C(c2ccccc2)S(=O)(=O)c2c(O)cccc21` in terms of T/C is 119 % of control

The reported value for `CC(=O)c1c(O)cc(C)n(Cc2ccccc2)c1=O` in terms of T/C is 100 % of control

The reported value for `O=c1[nH]c(Br)nc2nc[nH]c12` in terms of T/C is 94 % of control

The reported value for COC1CCC2C(C1)C(C1CCCCC1)C1CCCCC1C2C1CCCCC1 (centres undefined) in terms of T/C is 93 % of control

The reported value for CC1N(N2C(=O)CS(=O)(=O)C2C)C(=O)CS1(=O)=O (centres undefined) in terms of T/C is 95 % of control

The reported value for `CC1(C)CC(=O)c2c(oc3cc4c5c(oc4cc23)CC(C)(C)CC5=O)C1` in terms of T/C is 87 % of control

The reported value for `Cc1ccc(S(=O)(=O)NC(=O)/N=C2\NC(=O)CS2)cc1` in terms of T/C is 103 % of control

The reported value for O=C1NC(O)c2cccc(Br)c2O1 (centres undefined) in terms of T/C is 107 % of control

The reported value for `O=S1(=O)N=C(N2CCOCC2)c2ccccc21` in terms of T/C is 101 % of control

The reported value for `COc1ccc(C(=O)CC(=O)C(=O)Nc2ccc(Cl)cc2)cc1` in terms of T/C is 101 % of control

The reported value for `N#Cc1c(NC(=O)Nc2cc(C(F)(F)F)ccc2Cl)sc(=S)c2c1CCCC2` in terms of T/C is 103 % of control

The reported value for OCC1OC(O)C(N=Cc2ccc3c(c2)OCO3)C(O)C1O (centres undefined) in terms of T/C is 100 % of control

The reported value for CCS(=O)C(F)(F)C(F)Cl (centres undefined) in terms of T/C is 100 % of control

The reported value for `COc1cc2cccc(OC)c(=O)c2c(O)c1OC` in terms of T/C is 95 % of control

The reported value for `COc1ccc(S(=O)(=O)N/N=C\c2cc(I)cc(I)c2O)cc1` in terms of T/C is 102 % of control

The reported value for `O=C(NC(=O)c1cc2cc(Cl)cc(Cl)c2oc1=O)Oc1ccccc1` in terms of T/C is 91 % of control

The reported value for C/C(N=NC(=S)N1CCCC(C)C1)=C1\C=CC=CN1O (centres undefined) in terms of T/C is 98 % of control

====

Test system: P388 leukemia ip, CD2F1 mice, survival T/C
Experiment: NCI In Vivo Anticancer Drug Screen. Data for tumor model P388 Leukemia (intraperitoneal) in CD2F1 (CDF1) mice
Details: endpoint: median survival time; dose: 1.56 mg/kg/injection; schedule: Q01DX009 (ip); vehicle: saline; higher = longer survival
Toxic doses and inconclusive results are not listed.
Kindly supply the reported T/C values for the records listed here.

The reported value for `CCOC(=O)/C=C(\Cl)C(=O)OCC` in terms of T/C is 101 % of control

The reported value for Nc1ncnc2c1ncn2C1OC(CO)C(O)C1O (centres undefined) in terms of T/C is 116 % of control

The reported value for `CC[n+]1c(/C=C/c2ccc(N(C)C)cc2)ccc2ccccc21` in terms of T/C is 96 % of control

The reported value for `CCCCCCCCCCCCC[N+]1(CC)CCCCC1` in terms of T/C is 118 % of control

====

System: P388 leukemia ip, CD2F1 mice, survival T/C
Assay: NCI In Vivo Anticancer Drug Screen. Data for tumor model P388 Leukemia (intraperitoneal) in CD2F1 (CDF1) mice
Conditions: endpoint: median survival time; dose: 50.0 mg/kg/injection; schedule: Q01DX009 (ip); vehicle: saline; higher = longer survival
Experimental: The antitumor activity of compounds was measured in mice bearing transplantable tumors. Survival or tumor size were measured and the results are expressed as the measurement made in the treated group (T) divided by the measurement made in the vehicle treated control group (C). The tumor model used in this assay is P388 Leukemia (intraperitoneal) in CD2F1 (CDF1) mice
Inconclusive results and toxic doses are left out.
observable: T/C

The reported value for `CN(C)/C=N/c1c(C#N)c(-c2ccccc2)c(-c2ccccc2)n1-c1ccccc1` in terms of T/C is 98 % of control

The reported value for `O=[N+]([O-])c1cccn2cnnc12` in terms of T/C is 98 % of control

The reported value for `CC(C)(CO)[C@@H](O)C(=O)NCCC(=O)O` in terms of T/C is 108 % of control

The reported value for `CC(C)(C)C(=N)N` in terms of T/C is 102 % of control

The reported value for C1CN(P2(N3CC3)=NP(N3CC3)(N3CC3)=NP(N3CC3)(N3CC3)=N2)CCO1 (stereo unspecified) in terms of T/C is 104 % of control

The reported value for OC(C[n+]1ccccc1)c1ccccc1 (stereo unspecified) in terms of T/C is 100 % of control
